# Test system: PBMC
# EXPERIMENT: ELISPOT (IFNγ, IL-5, IL-10, IL-17, IL-21) of PBMC expanded 14 days with Bla g extract, then stimulated with peptides or peptide pools
# Format: cell-based, human
# Parameters: key: spot forming cells (SFC) per 10^6 PBMC
# REPORTED_CONDITIONS: non-redundant epitopes; sensitized donors
Consider the following sequences and their measured Average Magnitude of Response readings.
ASSAY_ENDPOINT: Average Magnitude of Response

In [3]: df
Out[3]:
                               residue_codes  measurement_target  observed_result
 0                           AQIQVVIHLDEQYIY                PBMC              4.6
 1  IRGRTKFEGNKFTID (listed as Blattella germanica)                PBMC             75.5
 2                           IVINNAGILNDEKWE                PBMC             10.8
 3                           STSLVKAHSMRNSAS                PBMC             19.9
 4                           ARYFLERLSNDLPDV                PBMC              3.5
 5                           QDVHKKLREWLSKNV                PBMC              8.5
 6                           KAHSMRNSASMDLSS                PBMC             16.4
 7                           SINLMFSQMYHAQLA                PBMC              4.3
 8                           RLFGAEVGWLALHHN                PBMC             35.5
 9                           VIYVQIRFSVRRFHP                PBMC             15.1
10                           LTVFDSTSCNVVVAS                PBMC              4.0
11                           VLGLPAIKAWVAKRP                PBMC             48.5
12                           PLKKETIPYYTKKFD                PBMC             14.2
13                           LVFLRNAKIELKPNQ                PBMC              4.0
14                           DPSIHVLKMVAELTH                PBMC              3.4
15                           NLEIDMIVDTISDFR                PBMC             19.1
16                           VEALFLLMKADPSIH                PBMC              4.2
17                           QTLFLLLLLLAAVSA                PBMC              3.2
18                           KAAVHLLVAVKASKE                PBMC              4.4
19  MIVDTISDFRAAIAN (listed as Blattella germanica)                PBMC             91.4
20                           ERYQLVSYNLNSRSG                PBMC              3.4
21                           HYQFDSIHKFEFASK                PBMC             24.4
22                           QPNLKALREKVLGLP                PBMC              6.5
23                           IRFSVRRFHPKLGDK                PBMC              5.8
24                           KQLKVSQIMEAARKL                PBMC              4.2
25                           AAIANYHYDADENSK                PBMC             26.2
26                           SSLFQVANQYTGILY                PBMC             50.2
27  TIPYYTKKFDEVVKA (listed as Blattella germanica)                PBMC            311.6
28  NDIEKRVPFSHDDRL (listed as Blattella germanica)                PBMC             72.8
29                           WVPSKKCHLTNIACL                PBMC              8.4
30  YFVAILDYLNHMAKE (listed as Blattella germanica)                PBMC            137.2
31                           RVPFSHDDRLGFLTF                PBMC             34.2
32                           GKDYILRVSQLGHTV                PBMC              3.4
33                           KFTIDYNDKGKAFSA                PBMC             32.0
34                           GVTPVFYNMVKQGLV                PBMC             20.8
35                           STSCNVVVASQECVG                PBMC              4.2
36                           ALNSIQQFISSEMVE                PBMC              4.4
37                           DENSKQKKWDPLKKE                PBMC             10.3
38                           SHVHFRFVPSAAVEF                PBMC              3.3
39                           AVLALCATDTLANED                PBMC              3.0
40                           WVCEHRWRQIFNMVG                PBMC             33.9
41                           CPTNLGTTVRASVRI                PBMC             11.2
42  PAYFKMNSPSLWKYN (listed as Blattella germanica)                PBMC             56.1
43                           NTTFSNASAVIQEFL                PBMC              4.2
44                           VNQHKKAIEEDLKHF                PBMC              4.0
45                           LWEINMIKAIISQLQ                PBMC              3.5
46                           RCNNVGIRIYVDVVL                PBMC             13.0
47                           HHQRLFMVQSLERVV                PBMC              3.1
48                           QQFISSEMVEPKEAS                PBMC              6.8
49                           FRPWWERYQLVSYNL                PBMC             10.8
50                           GHSHFVSDVVLSSDG                PBMC              9.6
51                           FLLSYGEKDFEDYRF                PBMC              8.5
52                           ISDFRAAIANYHYDA                PBMC            216.2
53                           QTHQSVAISRYLGKQ                PBMC              4.3
54                           EAGFAKLAASDSKSL                PBMC             16.0
55                           PAIKAWVAKRPPTDL                PBMC             18.7
56                           RDMVRRCNNVGIRIY                PBMC              5.2
57                           EVVKANGGYLAAGKL                PBMC              4.6
58                           FGSTLLDVIQSGLEN                PBMC             26.1
59  HMAKEDLVANQPNLK (listed as Blattella germanica)                PBMC             68.8
60                           QKGYMVSSMTDLWEA                PBMC             13.9
61                           IDDIIAILPVDDLYA                PBMC              6.6
62                           RHNSAYKLHFNAFEY                PBMC             44.0
63                           RILLRLHRCFQVLGR                PBMC             13.5
64                           GEKDFEDYRFQEGDW                PBMC             12.0
65                           KCHLTNIACLLHNKY                PBMC             22.6
66                           DKKVYRVFESTVTGR                PBMC              4.4
67  VAISRYLGKQFGLSG (listed as Blattella germanica)                PBMC             94.9
68                           ATDYENYAIVEGCPA                PBMC             32.7
